biological target: recombinant human mPGES-1 (Homo sapiens, UniProt O14684); experiment: mPGES-1 enzyme assay (HTRF detection of PGE2); conditions: recombinant human mPGES-1 microsomes, PGH2 2 μM, read-out: mPGES-1 inhibitory effect IC50
Sequence (O14684 whole entry): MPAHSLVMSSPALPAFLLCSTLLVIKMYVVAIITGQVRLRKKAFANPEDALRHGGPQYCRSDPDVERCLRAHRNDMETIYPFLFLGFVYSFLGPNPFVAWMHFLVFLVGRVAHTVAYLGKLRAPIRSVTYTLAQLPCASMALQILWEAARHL
pIC50: −log10 of the molar value.
RECORDED METRIC: pIC50

[
  {
    "SMILES REPRESENTATION": "CC(C)(C)C(=O)NCc1ccc(Cl)c(Nc2nc3cc(C(=O)N[C@H]4CC[C@H](C(F)(F)F)CC4)c(OCC(F)F)nc3[nH]2)c1F",
    "NUMERIC VALUE": 9.00
  },
  {
    "SMILES REPRESENTATION": "O=C(N[C@H]1CC[C@H](C(F)(F)F)CC1)c1cc2[nH]c(Nc3cc(CNC(=O)C4(C(F)(F)F)CC4)ccc3Cl)nc2nc1OCCF",
    "NUMERIC VALUE": 8.10
  },
  {
    "SMILES REPRESENTATION": "CC(C)(C)C(=O)NCc1ccc(Cl)c(Nc2nc3cc(C(=O)NCC(F)F)c(OCC(F)F)nc3n2CC(F)F)c1Cl",
    "NUMERIC VALUE": 9.00
  },
  {
    "SMILES REPRESENTATION": "CC(C)(C)C(=O)NCc1ccc(F)c(Nc2nc3cc(C(=O)N[C@H]4CC[C@H](C(F)(F)F)CC4)c(OCC(F)F)nc3[nH]2)c1F",
    "NUMERIC VALUE": 8.40
  },
  {
    "SMILES REPRESENTATION": "COCCOc1nc2c(cc1C(=O)N[C@H]1CC[C@H](C(F)(F)F)CC1)nc(Nc1cc(CNC(=O)C3(C(F)(F)F)CC3)ccc1Cl)n2C",
    "NUMERIC VALUE": 8.10
  },
  {
    "SMILES REPRESENTATION": "O=C(N[C@H]1CC[C@H](C(F)(F)F)CC1)c1cc2nc(Nc3cc(CNC(=O)C4(C(F)(F)F)CC4)ccc3Cl)[nH]c2nc1OCC(F)F",
    "NUMERIC VALUE": 8.40
  },
  {
    "SMILES REPRESENTATION": "Cn1c(Nc2cc(CNC(=O)C(C)(C)C)ccc2Cl)nc2cc(C(=O)Nc3ccc(Br)cc3)c(OCC(F)F)nc21",
    "NUMERIC VALUE": 8.05
  }
]
